Sourced from the supplement of paper PMC9135407

Tested on: primary human hepatic stellate cells (donor 1)
Test Description: scaled lipid accumulation score (0 = DMSO-like, 1 = nortriptyline-like); higher = stronger HSC inactivation (lipid re-accumulation), active = hit call of the paper
Test Conditions: library stock concentration: 1 mM; 48 h
In all, about 5,800 compounds went through this assay and about 620 (11%) showed activity.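 Rule for the calls: active = score above a cut-off or among the top three wells of a plate; in these data no inactive exceeds 0.85.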 The entries come from a sample that favours actives as a whole.
Possible outcomes: T (active), F (inactive)

[[record]]
compound = "CCCCCCCCCCCCC(O)C(=O)O (stereo not drawn) [2-Hydroxymyristic acid]"
answer_label = "F"

[[record]]
compound = "CCCCC/C=C\\C/C=C\\CCCC/C=C\\CCCC(=O)O [5(Z),11(Z),14(Z)-Eicosatrienoic Acid]"
answer_label = "F"

[[record]]
compound = "O=C(CCC/C=C\\C[C@@H]1[C@@H](/C=C/[C@@H](O)CCc2ccccc2)[C@H](O)C[C@@H]1O)NC(CO)CO [17-phenyl trinor Prostaglandin F2.alpha. serinol amide]"
answer_label = "F"

[[record]]
compound = "CCCCCC=CCC=CCCCCCCCCCC(=O)O [11(Z),14(Z)-Eicosadienoic Acid]"
answer_label = "F"

[[record]]
compound = "CC(C)(C)OC(=O)Nc1ccc(-c2cc(C(=O)NCCCCCCC(=O)NO)no2)cc1"
answer_label = "F"

[[record]]
compound = "CCCCC/C=C\\CCCC/C=C\\C/C=C\\CCCC(=O)O [5(Z),8(Z),14(Z)-Eicosatrienoic Acid]"
answer_label = "F"


###

Tested on: primary human hepatic stellate cells (donor 1)
Test Description: scaled lipid accumulation score (0 = DMSO-like, 1 = nortriptyline-like); higher = stronger HSC inactivation (lipid re-accumulation), active = hit call of the paper
Test Conditions: 48 h
Structures can show the parent of a compound that is named as a salt. Among all 5,800 compounds or so, about 620 (11%) showed activity.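 Rule for the calls: active = score above a cut-off or among the top three wells of a plate; in these data no inactive exceeds 0.85.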 The sample holds actives, similar compounds and a random draw of the others, so the mix is not that of the screen.
Outcomes: active, inactive

[[record]]
compound = "CN(C)CC/C=C1\\c2ccccc2CSc2ccccc21 [Dosulepin hydrochloride]"
answer_label = "inactive"

[[record]]
compound = "CCCOc1ccc(C(=O)OCCN(CC)CC)cc1N [Proparacaine hydrochloride]"
answer_label = "inactive"

[[record]]
compound = "CCCCC(CC)CN1CN(CC(CC)CCCC)CC(C)(N)C1 (configuration not stated)"
answer_label = "inactive"

[[record]]
compound = "CC(CN1c2ccccc2Sc2ccccc21)N(C)C (configuration not stated) [Promethazine hydrochloride]"
answer_label = "inactive"

[[record]]
compound = "O=C(O)C1CCCNC1 (configuration not stated)"
answer_label = "inactive"

[[record]]
compound = "CCN(CCCCOC(=O)c1ccc(OC)c(OC)c1)C(C)Cc1ccc(OC)cc1 (configuration not stated) [Mebeverine hydrochloride]"
answer_label = "inactive"

[[record]]
compound = "CC(=O)O[C@]1(C(C)=O)CC[C@H]2[C@@H]3C=C(C)C4=CC(=O)CC[C@]4(C)[C@H]3CC[C@@]21C [Megestrol acetate]"
answer_label = "inactive"

[[record]]
compound = "Cl.OCCN1CCN(CC/C=C2/c3ccccc3Sc3ccc(Cl)cc32)CC1 [Zuclopenthixol hydrochloride]"
answer_label = "active"

[[record]]
compound = "c1ccc(\\C(\\c2c3cccc2)=C\\CCNC)c(C=C3)c1"
answer_label = "active"

[[record]]
compound = "CN1CCN(CC(=O)N2c3ccccc3C(=O)Nc3cccnc32)CC1 [Pirenzepine dihydrochloride]"
answer_label = "inactive"

[[record]]
compound = "Cl.C(=C\\CCNC)(/c1c(cccc1)CC2)\\c3c2cccc3 [Nortriptyline hydrochloride]"
answer_label = "active"

[[record]]
compound = "C[N+]1(C)C[C@H](O)C[C@H]1C(=O)[O-]"
answer_label = "inactive"

[[record]]
compound = "O=c1cc(-c2ccc(O)cc2)oc2c([C@@H]3O[C@H](CO)[C@@H](O)[C@H](O)[C@H]3O)c(O)cc(O)c12"
answer_label = "inactive"

[[record]]
compound = "Cc1oncc1C(=O)Nc1ccc(C(F)(F)F)cc1 [Leflunomide]"
answer_label = "inactive"

[[record]]
compound = "COC(=O)Nc1nc2ccc(SC(C)C)cc2[nH]1"
answer_label = "inactive"

[[record]]
compound = "CN(C)C/C=C(/c1ccc(Br)cc1)c1cccnc1 [Zimelidine dihydrochloride monohydrate]"
answer_label = "inactive"

[[record]]
compound = "CC(=O)[C@H]1CC[C@H]2[C@@H]3CC=C4C[C@@H](O)CC[C@]4(C)[C@H]3CC[C@]12C"
answer_label = "inactive"

[[record]]
compound = "CC[C@@H](CC[C@@H](C)[C@H]1CC[C@H]2[C@@H]3CCC4C[C@@H](O)CC[C@]4(C)[C@H]3CC[C@]12C)C(C)C (some centres not stated)"
answer_label = "inactive"

[[record]]
compound = "CCN(CC)C(C)CN1c2ccccc2Sc2ccccc21 (configuration not stated) [Ethopropazine hydrochloride]"
answer_label = "inactive"

[[record]]
compound = "COC(=O)[C@H]1[C@H]2C[C@@H]3c4[nH]c5cc(OC)ccc5c4CCN3C[C@H]2C[C@@H](OC(=O)/C=C/c2cc(OC)c(OC)c(OC)c2)[C@@H]1OC"
answer_label = "inactive"

[[record]]
compound = "O=C(O)Cc1ccccc1Nc1c(Cl)cccc1Cl [Diclofenac sodium]"
answer_label = "inactive"

[[record]]
compound = "CC(=O)NC(CC(=O)O)C(=O)O (racemic) [Aspartic acid, N-acetyl (R,S)]"
answer_label = "inactive"

[[record]]
compound = "CCCNCC(O)COc1ccccc1C(=O)CCc1ccccc1 (configuration not stated) [Propafenone hydrochloride]"
answer_label = "inactive"

[[record]]
compound = "CN(C)[C@@H]1C(O)=C(C(=O)NCNCCCC[C@H](N)C(=O)O)C(=O)[C@@]2(O)C(O)=C3C(=O)c4c(O)cccc4[C@@](C)(O)[C@H]3C[C@@H]12"
answer_label = "inactive"

[[record]]
compound = "COc1ccc2cc3[n+](cc2c1OC)CCc1cc2c(cc1-3)OCO2 [Berberine chloride]"
answer_label = "inactive"

[[record]]
compound = "CN1CCN(CCCN2c3ccccc3Sc3ccc(S(=O)(=O)N(C)C)cc32)CC1 [Thioproperazine dimesylate]"
answer_label = "inactive"

[[record]]
compound = "Cc1[nH]ccc2c1[nH]c1cc(=O)ccc12 [Harmol hydrochloride monohydrate]"
answer_label = "inactive"

[[record]]
compound = "CN(C)CCCN1c2ccccc2CCc2ccc(Cl)cc21.Cl [Clomipramine hydrochloride]"
answer_label = "active"

[[record]]
compound = "CN(C)CCCN1c2ccccc2Sc2ccc(Cl)cc21 [Chlorpromazine hydrochloride]"
answer_label = "inactive"

[[record]]
compound = "CCOC(=O)Oc1c(OC)cc(C(=O)O[C@@H]2C[C@@H]3CN4CCc5c([nH]c6cc(OC)ccc56)[C@H]4C[C@@H]3[C@H](C(=O)OC)[C@H]2OC)cc1OC"
answer_label = "inactive"

[[record]]
compound = "CN(C)CCCN1c2ccccc2Sc2ccccc21 [Promazine hydrochloride]"
answer_label = "inactive"

[[record]]
compound = "Clc1ccc(Cn2c(CN3CCCC3)nc3ccccc32)cc1 [Clemizole hydrochloride]"
answer_label = "inactive"

